Details: in 1,4-dioxane, 313.15 K
property.name: solubility (mole fraction)
One number for each entry.

Query: Quick check: solubility (mole fraction) of Cn1cnc([N+](=O)[O-])c1Cl ?
Response: 0.0198

---

Conditions: in ethyl acetate, 303.15 K
property.name: solubility (mole fraction)
One number for each entry.

Query: Quick check: solubility (mole fraction) of Cn1cnc([N+](=O)[O-])c1Cl ?
Response: 0.0162

---

Settings: in n-propanol, 290.65 K
property.name: solubility (mole fraction)
Give bare numbers.

Query: Quick check: solubility (mole fraction) of Cn1cnc([N+](=O)[O-])c1Cl ?
Response: 0.00208

---

Conditions: in NMP, 298.15 K
property.name: solubility (mole fraction)

Query: Quick check: solubility (mole fraction) of Cn1cnc([N+](=O)[O-])c1Cl ?
Response: 0.195

---

Details: in 2-butanone, 305.65 K
property.name: solubility (mole fraction)

Query: Quick check: solubility (mole fraction) of Cn1cnc([N+](=O)[O-])c1Cl ?
Response: 0.0335

---

Settings: in chloroform, 318.15 K
property.name: solubility (mole fraction)
Answers are plain numbers.

Query: Quick check: solubility (mole fraction) of Cn1cnc([N+](=O)[O-])c1Cl ?
Response: 0.0399

---

Settings: in n-propanol, 288.15 K
property.name: solubility (mole fraction)
One number for each entry.

Query: Quick check: solubility (mole fraction) of Cn1cnc([N+](=O)[O-])c1Cl ?
Response: 0.00187

---

Conditions: in n-propanol, 303.15 K
property.name: solubility (mole fraction)
Answers are plain numbers.

Query: Quick check: solubility (mole fraction) of Cn1cnc([N+](=O)[O-])c1Cl ?
Response: 0.00342

---

Conditions: in acetone, 310.65 K
property.name: solubility (mole fraction)
One number for each entry.

Query: Quick check: solubility (mole fraction) of Cn1cnc([N+](=O)[O-])c1Cl ?
Response: 0.0508

---

Conditions: in 1,4-dioxane, 315.65 K
property.name: solubility (mole fraction)

Query: Quick check: solubility (mole fraction) of Cn1cnc([N+](=O)[O-])c1Cl ?
Response: 0.021

---

Settings: in toluene, 303.15 K
property.name: solubility (mole fraction)
Answers are plain numbers.

Query: Quick check: solubility (mole fraction) of Cn1cnc([N+](=O)[O-])c1Cl ?
Response: 0.0039

---

Settings: in methanol, 315.65 K
property.name: solubility (mole fraction)
One number for each entry.

Query: Quick check: solubility (mole fraction) of Cn1cnc([N+](=O)[O-])c1Cl ?
Response: 0.0087

---

Conditions: in ethanol, 303.15 K
property.name: solubility (mole fraction)
Answers are plain numbers.

Query: Quick check: solubility (mole fraction) of Cn1cnc([N+](=O)[O-])c1Cl ?
Response: 0.00456

---

Details: in chloroform, 285.65 K
property.name: solubility (mole fraction)
One number for each entry.

Query: Quick check: solubility (mole fraction) of Cn1cnc([N+](=O)[O-])c1Cl ?
Response: 0.0142

---

Conditions: in isopropanol, 285.65 K
property.name: solubility (mole fraction)
Give bare numbers.

Query: Quick check: solubility (mole fraction) of Cn1cnc([N+](=O)[O-])c1Cl ?
Response: 0.00125

---

Conditions: in 1,4-dioxane, 318.15 K
property.name: solubility (mole fraction)
Answers are plain numbers.

Query: Quick check: solubility (mole fraction) of Cn1cnc([N+](=O)[O-])c1Cl ?
Response: 0.0225
